Subject Of Test: T1, CRBN, Q96SW2
T1 chain: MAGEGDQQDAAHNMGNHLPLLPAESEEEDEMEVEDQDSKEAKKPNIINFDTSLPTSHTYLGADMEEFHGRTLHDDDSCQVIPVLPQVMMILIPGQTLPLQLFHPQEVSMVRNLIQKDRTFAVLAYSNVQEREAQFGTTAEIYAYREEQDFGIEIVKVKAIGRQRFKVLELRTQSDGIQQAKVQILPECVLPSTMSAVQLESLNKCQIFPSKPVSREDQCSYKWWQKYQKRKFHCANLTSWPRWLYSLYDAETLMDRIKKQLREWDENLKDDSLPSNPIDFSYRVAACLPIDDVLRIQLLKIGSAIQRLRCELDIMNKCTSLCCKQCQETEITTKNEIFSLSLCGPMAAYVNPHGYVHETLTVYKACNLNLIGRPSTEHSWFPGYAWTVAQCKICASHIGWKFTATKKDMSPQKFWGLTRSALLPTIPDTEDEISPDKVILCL
Test Name: log2 fold change of degron read counts, EGFP-low vs EGFP+ sorted cells (limma voom), compound-induced degradation; higher = more compound-induced degradation of the degron-EGFP fusion; degrons are variants of IKZF1/3 zinc finger 2; compound dose not given here;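 also: pooled lentiviral library of zinc finger degron-EGFP fusions in mCherry-positive Jurkat cells, FACS-sorted after compound exposure, with degron abundance counted by next-generation sequencing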
Applied Conditions: Jurkat; 18 h; compound: compound 33 (diphenyl IMiD analogue)
Whole data set: some 8,300 sequences, median “log2 fold change of degron read counts, EGFP-low vs EGFP+ sorted cells (limma voom), compound-induced degradation” near -1.1, cut for the highest 2% near 3.2. Shown is part of a subset that was picked to be rich in the highest values.
Readout Name: log2 fold change of degron read counts

Look over these answered cases.
Residues: LSCEICGFRCTQKGNLLRHIKL [46L_47S_49E_50I_52G_53F_54R_55C_67L_, Q9UKT9]
log2 fold change of degron read counts: 0.517

Residues: FCCDICGAMFTQKGNLLRHIKL [46F_47C_49D_50I_52G_53A_54M_55F_67L_, Q9UKT9]
log2 fold change of degron read counts: 0.721

Residues: LVCEICGFFCTQKGNLLRHIKL [46L_47V_49E_50I_52G_53F_54F_55C_67L_, Q9UKT9]
log2 fold change of degron read counts: 0.876

Residues: LYCEICGFRCTQKGNLLRHIKL [46L_47Y_49E_50I_52G_53F_54R_55C_67L_, Q9UKT9]
log2 fold change of degron read counts: 2.17

Residues: FVCPICGHVFTQKGNLLRHIKL [46F_47V_49P_50I_52G_53H_54V_55F_67L_, Q9UKT9]
log2 fold change of degron read counts: -1.17

Residues: LACEICGFRCTQKGNLLRHIKL [46L_47A_49E_50I_52G_53F_54R_55C_67L_, Q9UKT9]
log2 fold change of degron read counts: 0.159

Residues: FCCSVCGHVFTQKGNLLRHIKL [46F_47C_49S_50V_52G_53H_54V_55F_67L_, Q9UKT9]
log2 fold change of degron read counts: -2.47

Residues: LMCEICGFRCTQKGNLLRHIKL [46L_47M_49E_50I_52G_53F_54R_55C_67L_, Q9UKT9]
log2 fold change of degron read counts: 2.15

Residues: FVCNQCGRWFTQKGNLLRHIKL [46F_47V_49N_50Q_52G_53R_54W_55F_67L_, Q9UKT9]
log2 fold change of degron read counts: -2.42

Residues: LDCEICGFRCTQKGNLLRHIKL [46L_47D_49E_50I_52G_53F_54R_55C_67L_, Q9UKT9]
log2 fold change of degron read counts: -0.616

The reported log2 fold change of degron read counts of the sequence FRCPICGHVFTQKGNLLRHIKL [46F_47R_49P_50I_52G_53H_54V_55F_67L_, Q9UKT9] was -0.964

The reported log2 fold change of degron read counts of the sequence LWCEICGFRCTQKGNLLRHIKL [46L_47W_49E_50I_52G_53F_54R_55C_67L_, Q9UKT9] was 2.48

The reported log2 fold change of degron read counts of the sequence LGCEICGFRCTQKGNLLRHIKL [46L_47G_49E_50I_52G_53F_54R_55C_67L_, Q9UKT9] was -0.383

The reported log2 fold change of degron read counts of the sequence FDCNVCGASFTQKGNLLRHIKL [46F_47D_49N_50V_52G_53A_54S_55F_67L_, Q9UKT9] was -1.21

The reported log2 fold change of degron read counts of the sequence LHCEICGFRCTQKGNLLRHIKL [46L_47H_49E_50I_52G_53F_54R_55C_67L_, Q9UKT9] was 1.3
